The measurements presented in this section are drawn from ChEMBL document CHEMBL2321725.

molecular target: Cyclin-dependent kinase 4/cyclin D1 (Homo sapiens); assay: Inhibition of human recombinant CDK4/Cyclin D1 using fluoresceinyl-Ahx-Pro-Val-Lys-Arg-Arg-Leu-(3ClPhe)-Gly tracer peptide as substrate after 45 mins by fluorescent polarization binding assay
Sequence (P11802 whole entry): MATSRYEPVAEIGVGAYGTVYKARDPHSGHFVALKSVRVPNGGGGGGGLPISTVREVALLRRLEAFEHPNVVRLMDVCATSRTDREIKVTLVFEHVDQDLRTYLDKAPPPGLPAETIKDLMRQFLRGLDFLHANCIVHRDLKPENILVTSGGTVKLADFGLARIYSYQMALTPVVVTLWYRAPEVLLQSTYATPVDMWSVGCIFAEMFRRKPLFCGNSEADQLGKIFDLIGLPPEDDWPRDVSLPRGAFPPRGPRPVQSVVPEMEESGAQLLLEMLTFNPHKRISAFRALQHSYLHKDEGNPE
Sequence (P24385 whole entry, further chain): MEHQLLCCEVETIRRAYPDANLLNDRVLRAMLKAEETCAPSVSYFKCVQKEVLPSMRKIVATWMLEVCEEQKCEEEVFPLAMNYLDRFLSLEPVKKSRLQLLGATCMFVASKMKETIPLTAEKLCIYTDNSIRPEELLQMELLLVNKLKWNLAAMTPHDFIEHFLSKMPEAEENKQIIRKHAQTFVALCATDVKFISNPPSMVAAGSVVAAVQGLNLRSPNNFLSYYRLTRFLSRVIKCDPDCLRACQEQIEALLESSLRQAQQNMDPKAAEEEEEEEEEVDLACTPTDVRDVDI
pIC50: −log10 of the molar value. Peptide text beside a SMILES is read from it. * marks the point of attachment. X3 = COc1ccc(-n2nc(C(=O)*)cc2C)cc1
reported_endpoint: pIC50

>  <compound>
Cc1ccccc1Oc1ccnc(CNC(=O)[C@H](CC(C)C)NC(=O)[C@H](CCCNC(=N)N)NC(=O)c2nc(C)n(-c3ccc(Cl)cc3)n2)c1

>  <test_result>
< 3.30

$$$$
>  <compound>
CC[C@H](C)[C@H](NC(=O)[C@H](CC(C)C)NC(=O)[C@H](CCCNC(=N)N)NC(=O)c1cc(C)n(-c2ccc(OC)cc2)n1)C(=O)N[C@@H](Cc1ccccc1)C(N)=O (X3-RLIF-NH2)

>  <test_result>
< 3.74

$$$$

Reported pIC50, compound "Cc1nc(C(=O)N[C@@H](CCCNC(=N)N)C(=O)N[C@@H](CC(C)C)C(=O)NCc2cc(Oc3ccc(F)c(F)c3)ccn2)nn1-c1cc(Cl)cc(Cl)c1" : ____ < 3.74
